# protocol summary: Metabolic (microsomal) stability assay, human liver microsomes (HLM)
# Assay type: in vitro ADME
# settings: 1 μM, predicted clearance as percent of liver blood flow
Measured HLM QH [%] values are reported for all entries that follow.

smiles string: C[C@H](Oc1cc(Nc2cnccn2)nc(-c2noc3c2CCC[C@@]32CCCc3sc(N)c(C#N)c32)n1)[C@@H]1CCCN1C
measured attribute: HLM QH [%]
experimental result: <24%

Entry under review: C[C@H](Oc1cc(Nc2nccs2)nc(-c2noc3c2CCC[C@@]32CCCc3sc(N)c(C#N)c32)n1)[C@@H]1CCCN1C . Reported HLM QH [%]?
<24%

Entry under review: COC[C@H](C)Nc1cc(O[C@@H](C)[C@@H]2CCCN2C)nc(-c2onc3c2CCC[C@@]32CCCc3sc(N)c(C#N)c32)n1 . Reported HLM QH [%]?
<24%

###

# protocol summary: Solubility measurement (DMSO solution precipitation method)
# Format: physicochemical
# settings: aqueous buffer, kinetic from dmso stock; McIlvaine buffer pH 6.8, 24 h; read-out: Solubility [μg/ml] pH 6.8
measured attribute: solubility at 24 h

Entry under review: CO[C@@H]1C[C@@H]([C@H](C)Oc2cc(O[C@@H]3CNC3(C)C)nc(-c3noc4c3CCC[C@@]43CCCc4sc(N)c(C#N)c43)n2)N(C)C1 [II-30] . Reported solubility at 24 h?
> 165 µg/mL

Entry under review: C[C@H](Oc1cc(O[C@H]2CCOC2)nc(-c2noc3c2CCC[C@@]32CCCc3sc(N)c(C#N)c32)n1)[C@@H]1CCCN1C [II-4] . Reported solubility at 24 h?
< 1 µg/mL

Entry under review: C[C@H](Oc1cc(OCC2(N(C)C)COC2)nc(-c2noc3c2CCC[C@@]32CCCc3sc(N)c(C#N)c32)n1)[C@@H]1CCCN1C [II-22] . Reported solubility at 24 h?
> 157 µg/mL

###

# system name: KRAS G12D Ba/F3 (Homo sapiens, UniProt P01116, G12D, cells depend on it)
# Sequence (P01116 whole entry G12D): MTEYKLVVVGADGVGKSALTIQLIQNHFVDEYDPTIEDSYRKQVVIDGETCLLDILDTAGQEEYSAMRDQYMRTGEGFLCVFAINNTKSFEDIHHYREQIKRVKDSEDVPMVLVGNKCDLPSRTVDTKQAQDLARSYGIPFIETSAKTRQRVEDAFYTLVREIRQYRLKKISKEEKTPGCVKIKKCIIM
# protocol summary: Ba/F3 proliferation assay, KRAS G12D
# Format: cell-based
# settings: 72 h, AlamarBlue, read-out: KRAS G12D Ba/F3 IC50
measured attribute: GI50 (nM)

Observe how each entry below is paired with its result.
compound: C[C@H](Oc1cc(O[C@@H]2CNC2(C)C)nc(-c2noc3c2CCC[C@@]32CCCc3sc(N)c(C#N)c32)n1)[C@@H]1CCCN1C [II-9]
measured attribute: GI50
experimental result: 5

compound: C[C@H](Oc1cc(O[C@H]2CCOC2)nc(-c2noc3c2CCC[C@@]32CCCc3sc(N)c(C#N)c32)n1)[C@@H]1CCCN1C [II-4]
measured attribute: GI50
experimental result: 31

P = C[C@H](Oc1cc(Oc2nccs2)nc(-c2noc3c2CCC[C@@]32CCCc3sc(N)c(C#N)c32)n1)[C@@H]1CCCN1C [II-2]
Q = COCCOc1cc(O[C@@H](C)[C@@H]2CCCN2C)nc(-c2noc3c2CCC[C@@]32CCCc3sc(N)c(C#N)c32)n1 [II-5]
R = C[C@H](Oc1cc(Oc2cnccn2)nc(-c2noc3c2CCC[C@@]32CCCc3sc(N)c(C#N)c32)n1)[C@@H]1CCCN1C [II-7]
Order the records so the highest GI50 appears first and the lowest last. State the ranking by listing the labels in the requested order.
Q, P, R
(Q: 38 nM, P: 20 nM, R: 10 nM)
